measured_parameter: melting point (°C)

• CCCCCCCCCC(=O)Nc1ccc(O)cc1 [PL10, N-(4-hydroxyphenyl)decanamide] = 124
• CCCCCC(=O)Nc1ccc(O)cc1 [PL6, N-(4-hydroxyphenyl)hexanamide] = 110
• CCCCCCCC(=O)Nc1ccc(O)cc1 [PL8, N-(4-hydroxyphenyl)octanamide] = 120
• CCCCCCCCC(=O)Nc1ccc(O)cc1 [PL9, N-(4-hydroxyphenyl)nonanamide] = 119
• CCCCCCCCCCCC(=O)Nc1ccc(O)cc1 [PL12, N-(4-hydroxyphenyl)dodecanamide] = 128
• CCCCCCCCCCCCCCCC(=O)Nc1ccc(O)cc1 [PL16, N-(4-Hydroxyphenyl)hexadecanamide] = 131
• CCCCCCC(=O)Nc1ccc(O)cc1 [PL7, N-(4-hydroxyphenyl)heptanamide] = 109

Value source: patent US20210332001A1
